# targetOfAssay: Mot3 (UniProt P54785)
# Sequence: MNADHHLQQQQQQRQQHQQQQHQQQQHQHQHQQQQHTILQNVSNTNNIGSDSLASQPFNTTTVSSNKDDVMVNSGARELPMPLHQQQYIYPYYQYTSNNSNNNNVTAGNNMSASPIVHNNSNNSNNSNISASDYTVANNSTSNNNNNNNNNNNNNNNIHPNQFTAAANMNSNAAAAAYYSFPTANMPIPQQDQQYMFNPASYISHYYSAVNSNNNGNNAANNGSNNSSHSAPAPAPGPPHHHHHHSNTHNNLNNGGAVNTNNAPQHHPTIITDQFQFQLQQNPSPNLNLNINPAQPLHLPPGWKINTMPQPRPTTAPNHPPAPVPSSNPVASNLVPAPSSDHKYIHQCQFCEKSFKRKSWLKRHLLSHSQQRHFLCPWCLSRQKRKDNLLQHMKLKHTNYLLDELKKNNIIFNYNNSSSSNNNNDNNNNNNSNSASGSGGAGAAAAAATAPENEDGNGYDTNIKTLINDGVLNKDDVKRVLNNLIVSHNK
# test: PBM E-score (8-mer binding enrichment) (E-score (-0.5 to 0.5)); higher = stronger / more preferred TF binding
# condition: protein concentration: 200 nM; construct: GST-full length
The full ranking holds about 33,000 sequences; the median of “E-score (-0.5 to 0.5)” is about -0.035, and the highest 2% start at about 0.34. Only a selection was taken, and the highest values are over-represented in it overall.
PBM E-score below 0.1 gives NOT MET; PBM E-score at or above it gives MET.

See these solved cases before continuing.
residueCodes	labelValue
CACGTGAA	MET
GACGCCCA	NOT MET

Let us examine a further case.
Input: Does the reported PBM E-score for CACGTGTA fall at or above the 0.1 mark?
Output: MET

---

# targetOfAssay: Mot3 (UniProt P54785)
# Sequence: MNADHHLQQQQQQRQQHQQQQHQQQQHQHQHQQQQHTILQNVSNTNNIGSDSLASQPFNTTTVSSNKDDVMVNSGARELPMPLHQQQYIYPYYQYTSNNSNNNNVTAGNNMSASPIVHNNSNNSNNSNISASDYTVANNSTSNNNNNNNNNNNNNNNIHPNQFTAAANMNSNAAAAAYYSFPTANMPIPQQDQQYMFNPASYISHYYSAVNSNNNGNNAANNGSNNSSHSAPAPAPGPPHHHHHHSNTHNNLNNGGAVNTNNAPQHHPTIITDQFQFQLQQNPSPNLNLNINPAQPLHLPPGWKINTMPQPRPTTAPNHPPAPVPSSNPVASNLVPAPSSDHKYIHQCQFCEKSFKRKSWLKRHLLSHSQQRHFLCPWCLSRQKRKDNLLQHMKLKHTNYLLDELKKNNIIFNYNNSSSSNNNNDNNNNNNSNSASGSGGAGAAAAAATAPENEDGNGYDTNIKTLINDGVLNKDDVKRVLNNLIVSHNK
# test: PBM E-score (8-mer binding enrichment) (E-score (-0.5 to 0.5)); higher = stronger / more preferred TF binding
# condition: protein concentration: 200 nM; construct: GST-full length
Over roughly 33,000 sequences, “E-score (-0.5 to 0.5)” has its median near -0.035; the highest 2% begin near 0.34. The entries come from a sample that favours the highest values as a whole.
Cut-off 0.09 on PBM E-score, inclusive. At or above means label 1; below means label 0.

Input: Check if PBM E-score >= 0.09 (inclusive). Item: TCGCCCCA
Output: label 0

Input: Would you say AAGGAACA shows PBM E-score at minimum 0.09?
Output: label 1

Input: Confirm if PBM E-score reported for the sequence ACTGCGCA is 0.09 or above.
Output: label 0

Input: Form field: PBM E-score at least 0.09? Entry: AACCAGGT
Output: label 0

Input: Textbook exercise: given the entry ATGGAACA , state whether its PBM E-score is greater than or equal to 0.09.
Output: label 0

Input: Hello, I need to know if TCTGTACA has measured PBM E-score not below 0.09. Thanks!
Output: label 1

Input: Does TAGGAACA have a reported PBM E-score of at least 0.09?
Output: label 1

Input: Quick check: does ATGGGAGC have PBM E-score greater than or equal to 0.09?
Output: label 0

Input: # check: PBM E-score of GAGGAACA is greater than or equal to 0.09
Output: label 1

Input: Decide: is the reported value of PBM E-score for ACGGAACT equal to or greater than 0.09?
Output: label 0

Input: Test whether the sequence GATGTACA records PBM E-score of 0.09 or higher.
Output: label 1

Input: I'd appreciate it if you could say whether GGATTTAC has PBM E-score at least equal to 0.09.
Output: label 1

Input: Is PBM E-score for CATGTACA at or above 0.09?
Output: label 1

Input: Entry AATGTACA : is its PBM E-score no less than 0.09?
Output: label 1

Input: Reported PBM E-score reaches at least 0.09 for CGGCTTCA ?
Output: label 0

Input: # check: PBM E-score of AAGGAATT is greater than or equal to 0.09
Output: label 0

---

# targetOfAssay: Mot3 (UniProt P54785)
# Sequence: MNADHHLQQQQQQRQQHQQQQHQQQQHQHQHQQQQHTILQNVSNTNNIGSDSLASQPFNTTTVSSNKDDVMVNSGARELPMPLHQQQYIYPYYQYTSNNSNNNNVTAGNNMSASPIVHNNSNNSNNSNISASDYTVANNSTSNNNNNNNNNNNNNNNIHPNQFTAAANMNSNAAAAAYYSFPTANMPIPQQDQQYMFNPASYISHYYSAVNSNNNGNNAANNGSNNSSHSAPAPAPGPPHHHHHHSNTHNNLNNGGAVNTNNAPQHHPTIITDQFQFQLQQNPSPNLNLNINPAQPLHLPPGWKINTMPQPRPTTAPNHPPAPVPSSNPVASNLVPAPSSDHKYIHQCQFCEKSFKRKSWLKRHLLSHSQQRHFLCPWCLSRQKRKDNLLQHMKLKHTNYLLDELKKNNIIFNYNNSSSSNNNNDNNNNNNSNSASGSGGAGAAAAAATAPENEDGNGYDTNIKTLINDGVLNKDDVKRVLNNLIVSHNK
# test: PBM E-score (8-mer binding enrichment) (E-score (-0.5 to 0.5)); higher = stronger / more preferred TF binding
# condition: protein concentration: 200 nM; construct: GST-full length
Whole data set: some 33,000 sequences, median “E-score (-0.5 to 0.5)” near -0.035, cut for the highest 2% near 0.34. The sample holds the highest values, similar sequences and a random draw of the others, so the mix is not that of the screen.
Readings of PBM E-score for the listed sequences
Keep the answer to the number alone.

Recorded PBM E-score, per entry:
residueCodes	endpoint	reading
ACCCGCAA	PBM E-score	-0.0644
CCATCTGC	PBM E-score	-0.272
ATACACCA	PBM E-score	0.129
AATATGTA	PBM E-score	0.277
CGTTGAGA	PBM E-score	-0.183

Input: Please provide the recorded PBM E-score for CTCGCCAA , tested on Mot3 (UniProt P54785).
Output: -0.0783

Input: Observed PBM E-score on Mot3 (UniProt P54785) for GATGCTAC , please.
Output: -0.122

---

# targetOfAssay: Mot3 (UniProt P54785)
# Sequence: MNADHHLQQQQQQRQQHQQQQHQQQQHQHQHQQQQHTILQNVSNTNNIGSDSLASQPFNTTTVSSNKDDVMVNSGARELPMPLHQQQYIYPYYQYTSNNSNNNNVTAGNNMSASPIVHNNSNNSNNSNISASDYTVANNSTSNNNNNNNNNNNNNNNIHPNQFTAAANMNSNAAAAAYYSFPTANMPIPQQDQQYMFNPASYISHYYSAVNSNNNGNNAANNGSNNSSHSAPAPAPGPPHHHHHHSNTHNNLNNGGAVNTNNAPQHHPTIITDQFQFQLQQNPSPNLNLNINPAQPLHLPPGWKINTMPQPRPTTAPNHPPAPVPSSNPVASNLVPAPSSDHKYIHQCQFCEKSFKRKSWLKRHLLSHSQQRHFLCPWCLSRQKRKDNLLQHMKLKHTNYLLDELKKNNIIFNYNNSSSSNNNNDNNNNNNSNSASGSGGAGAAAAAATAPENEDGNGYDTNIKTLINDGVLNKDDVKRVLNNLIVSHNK
# test: PBM E-score (8-mer binding enrichment) (E-score (-0.5 to 0.5)); higher = stronger / more preferred TF binding
# condition: protein concentration: 200 nM; construct: GST-full length
Over roughly 33,000 sequences, “E-score (-0.5 to 0.5)” has its median near -0.035; the highest 2% begin near 0.34. The full list was thinned out, with the highest values kept by preference.
endpoint: PBM E-score
I'd appreciate a reply containing only the number, no unit.

Input: Requested read-out: PBM E-score. Entry: ACTGAGAG
Output: -0.0806
